Data origin, for the record: patent US5223526A

Tested on: Botrytis cinerea
Assay: Eggplant grey mold
Assay type: in vivo
Design: scale not given here
Details: eggplant sprayed with 20 ppm, inoculated 24 h later, rated after 3-4 days
Kindly supply the reported Disease Control Rating at 20 ppm values for the records listed here.
# respond with the number and nothing more

-- ask Could you tell me which Disease Control Rating at 20 ppm is on file for C=C(c1ccccc1NC(=O)c1cn(C)nc1C(F)(F)F)C1CCCC1 ?
-- reply 0

-- ask Repeat with Cn1cc(C(=O)Nc2ccccc2C2CCCCC2)c(C(F)(F)F)n1
-- reply 1

-- ask Repeat with Cn1cc(C(=O)Nc2ccccc2CC2CCCCC2)c(C(F)F)n1
-- reply 0

-- ask Repeat with Cn1cc(C(=O)Nc2ccccc2[C@@H]2C[C@H]3CC[C@@H]2C3)c(C(F)F)n1 (relative stereo)
-- reply 1

-- ask Repeat with Cc1ccc(C2CCCCC2)c(NC(=O)c2cn(C)nc2C(F)F)c1
-- reply 1

-- ask Repeat with Cn1cc(C(=O)Nc2ccccc2C=C2CCCCCC2)c(C(F)(F)F)n1
-- reply 0

-- ask Repeat with Cn1cc(C(=O)Nc2ccccc2C2=CCCCCC2)c(C(F)(F)F)n1
-- reply 2

-- ask Repeat with Cn1nc(C(F)F)c(C(=O)Nc2ccccc2C2CCCCCC2)c1F
-- reply 1

-- ask Repeat with Cn1cc(C(=O)Nc2ccccc2OC2(C)CCCC2)c(C(F)F)n1
-- reply 2

---

Tested on: Botrytis cinerea
Experiment: Eggplant grey mold
Assay type: in vivo
Parameters: scale not given here
Settings: eggplant sprayed with 500 ppm, inoculated 24 h later, rated after 3-4 days
Procedure: Eggplant seed are planted in 2.25" square pots, six per pot, and maintained in growth chambers set at 23° C., 80% humidity, and 12 h photoperiod. When the plants are at the cotyledon stage (14-18 days afterplanting), the plants are sprayed with 1.5 mL/pot of 500, 100 or 20 ppm 2:3 acetone:water (with 0.5% Tween® 20) formulations of the test compounds. Twenty-four hours later the plants are inoculated with Botrytis cinerea, approximately 0.5 mL/pot of a 4×10^6 spore/mL suspension. […]
EXPERIMENTAL ENDPOINT: Disease Control Rating at 500 ppm
# respond with the number and nothing more

-- ask Could you tell me which Disease Control Rating at 500 ppm is on file for CCC1CC=C(c2ccccc2NC(=O)c2cn(C)nc2C(F)F)CC1 (stereo not drawn) ?
-- reply 2

-- ask Repeat with Cn1cc(C(=O)Nc2ccccc2C2CCCC2)c(C(F)(F)Cl)n1
-- reply 0

-- ask Repeat with Cn1cc(C(=O)Nc2ccccc2C2CCCCC2)c(C#N)n1
-- reply 2

-- ask Repeat with Cc1ccccc1NC(=O)c1c(C)nn(C)c1C [Compound H, reference compound]
-- reply 0

-- ask Repeat with Cn1cc(C(=O)Nc2ccccc2C2=CCCCCC2)c(C(F)(F)F)n1
-- reply 3

-- ask Repeat with Cn1cc(C(=O)Nc2ccccc2C2CCCC2)c(C(F)F)n1
-- reply 0

-- ask Repeat with Cn1cc(C(=O)Nc2ccccc2[C@@H]2C[C@H]3CC[C@@H]2C3)c(I)n1 (relative stereo)
-- reply 2

-- ask Repeat with Cn1cc(C(=O)Nc2ccccc2C2(C)CCCC2)c(C(F)F)n1
-- reply 2

-- ask Repeat with Cn1nc(C(F)(F)F)c(C(=O)Nc2ccccc2C2CCCCC2)c1F
-- reply 2

-- ask Repeat with CC1=C(c2ccccc2NC(=O)c2cn(C)nc2C(F)F)C(C)CCC1 (stereo not drawn)
-- reply 2

-- ask Repeat with Cc1nn(C)c(C)c1C(=O)Nc1ccccc1C1CCCCC1
-- reply 2

-- ask Repeat with Cn1cc(C(=O)Nc2ccccc2C=C2CCCCC2)c(C(F)F)n1
-- reply 1

-- ask Repeat with Cn1cc(C(=O)Nc2ccccc2OCCC2CCCC2)c(C(F)F)n1
-- reply 0

-- ask Repeat with O=C(Nc1ccccc1C1CCCCC1)c1c[nH]nc1C(F)F
-- reply 2

-- ask Repeat with Cn1cc(C(=O)Nc2ccccc2O[C@H]2C[C@H]3CC[C@@H]2C3)c(C(F)F)n1 (relative stereo)
-- reply 0

-- ask Repeat with Cn1cc(C(=O)Nc2ccccc2O[C@@H]2C[C@H]3CC[C@@H]2C3)c(C(F)F)n1 (relative stereo)
-- reply 0

-- ask Repeat with Cn1cc(C(=O)Nc2ccccc2C2=CC(C)(C)CC(C)(C)C2)c(C(F)F)n1
-- reply 1

-- ask Repeat with Cn1cc(C(=S)Nc2ccccc2C2CCCCC2)c(C(F)F)n1
-- reply 2

-- ask Repeat with Cn1cc(C(=O)Nc2ccccc2C2CCCCC2)c(Br)n1
-- reply 3

-- ask Repeat with CC(=C1CCCC1)c1ccccc1NC(=O)c1cn(C)nc1C(F)(F)F
-- reply 2

-- ask Repeat with CSc1nn(C)cc1C(=O)Nc1ccccc1C1CCCCC1
-- reply 1

-- ask Repeat with Cc1nn(C)cc1C(=O)Nc1ccccc1[C@@H]1C[C@H]2CC[C@@H]1C2 (relative stereo)
-- reply 0

-- ask Repeat with Cn1cc(C(=O)Nc2ccc(F)cc2C2CCCCC2)c(C(F)F)n1
-- reply 3

-- ask Repeat with Cn1cc(C(=O)Nc2ccccc2C2CCCCCC2)c(OC(F)F)n1
-- reply 0

-- ask Repeat with Cn1cc(C(=O)Nc2ccccc2C2CCC(C(C)(C)C)CC2)c(C(F)(F)F)n1 (stereo not drawn)
-- reply 2

-- ask Repeat with Cn1cc(C(=O)Nc2ccccc2OCC2CCCC2)c(C(F)F)n1
-- reply 0

-- ask Repeat with Cc1ccc(NC(=O)c2cn(C)nc2C(F)F)c(C2CCCCC2)c1
-- reply 2

-- ask Repeat with CC(C)C1=C(c2ccccc2NC(=O)c2cn(C)nc2C(F)(F)F)CCCC1
-- reply 0

-- ask Repeat with C=C(c1ccccc1NC(=O)c1cn(C)nc1C(F)(F)F)C1CCCC1
-- reply 2

-- ask Repeat with Cn1cc(C(=O)Nc2ccccc2C2CCCC2)c(Br)n1
-- reply 2

-- ask Repeat with Cn1cc(C(=O)Nc2ccccc2C2=CCC(C(C)(C)C)CC2)c(C(F)F)n1 (stereo not drawn)
-- reply 0

-- ask Repeat with Cc1ccc(C2CCCCC2)c(NC(=O)c2cn(C)nc2C(F)F)c1
-- reply 2

-- ask Repeat with Cn1cc(C(=O)Nc2ccccc2[C@@H]2C[C@H]3CC[C@@H]2C3)c(Br)n1 (relative stereo)
-- reply 2

-- ask Repeat with Cn1cc(C(=O)Nc2ccccc2O[C@H]2CC[C@H](C)CC2)c(C(F)(F)F)n1
-- reply 0

-- ask Repeat with Cn1cc(C(=O)Nc2ccccc2OCC2CCC2)c(C(F)(F)F)n1
-- reply 0

-- ask Repeat with Cn1cc(C(=O)Nc2ccccc2C2CCC(C(C)(C)C)CC2)c(C(F)F)n1 (stereo not drawn)
-- reply 2
